test: Half lethal dose, Lichfield-Wilcoxon method; details: in vivo, iv, rat
reportedProperty: LD50 (mg/kg)
Provide the reading as a plain figure in mg/kg.

For record "Nc1ncnc2c1ncn2[C@@H]1O[C@H](COP(=O)(O)OP(=O)(O)OP(=O)(O)OP(=O)(O)OC[C@H]2O[C@@H](n3cnc4c(N)ncnc43)[C@H](O)[C@@H]2O)[C@@H](O)[C@H]1O" the listed LD50 is 102
